Reference for the values: ChEMBL document CHEMBL4196169

For each of the compounds below, state its pKa.
experiment: Dissociation constant, pKa of the compound
Format: physicochemical
Answer as a number with no unit attached.

Return pKa for the following compound: O=C(Nc1ccc(OC(F)(F)Cl)cc1)c1cnc(N2CC[C@@H](O)C2)c(-c2ccn[nH]2)c1
4

Return pKa for the following compound: O=C(Nc1ccc(OC(F)(F)Cl)cc1)c1cnc(N2C[C@H](O)[C@@H](O)C2)c(-c2cncnc2)c1
3.3

Return pKa for the following compound: O=C(Nc1ccc(OC(F)(F)Cl)cc1)c1cnc(N2CC[C@@H](O)C2)c(-c2cncnc2)c1
3.8

Return pKa for the following compound: O=C(Nc1ccc(OC(F)(F)F)cc1)c1ccc(OCCN2CCCC2)c(-c2cncnc2)c1
8.9

Return pKa for the following compound: O=C(Nc1ccc(OC(F)(F)F)cc1)c1cnc(N2CCC(O)C2)c(-c2cncnc2)c1 (single isomer, unassigned; 7)
3.3

Return pKa for the following compound: O=C(Nc1ccc(SC(F)(F)F)cc1)c1cnc(N2CC[C@@H](O)C2)c(-c2cncnc2)c1
3.5

Return pKa for the following compound: C[C@@]1(O)CCN(c2ncc(C(=O)Nc3ccc(OC(F)(F)F)cc3)cc2-c2ccn[nH]2)C1
3.8

Return pKa for the following compound: O=C(Nc1ccc(OC(F)(F)F)cc1)c1cnc(N2CCC(O)C2)c(-c2cncnc2)c1 (single isomer, unassigned; 14)
3.7

* * *

experiment: AUClast in Beagle dog at 1 mg/kg, iv
Format: ADME, organism-based, Canis lupus familiaris
Design: dose 1 mg/kg, route intravenous, time 0 - last
setup-conditions: in vivo
parameter-measured: AUC(0-t)
Please answer in the form of a number followed by its unit of measurement.

Return AUC(0-t) for the following compound: O=C(Nc1ccc(OC(F)(F)Cl)cc1)c1cnc(N2CC[C@@H](O)C2)c(-c2ccn[nH]2)c1 [ASCIMINIB]
2810 ng·h/mL

* * *

experiment: Solubility of the compound at pH 4
Type: physicochemical
setup-conditions: buffer
parameter-measured: solubility (µg/mL)
Record the value in µg/mL, omitting the unit from your answer.

Return solubility for the following molecule: O=C(Nc1ccc(OC(F)(F)Cl)cc1)c1cnc(N2CC[C@@H](O)C2)c(-c2ccn[nH]2)c1
2

* * *

experiment: Lipophilicity, log p of the compound by high throughput assay
Assay type: physicochemical
setup-conditions: octanol/water
For each of the compounds below, state its logP.
Answer as a number with no unit attached.

Return logP for the following compound: O=C(Nc1ccc(OC(F)(F)Cl)cc1)c1cnc(N2CC[C@@H](O)C2)c(-c2cncnc2)c1
3.7

Return logP for the following compound: O=C(Nc1ccc(OC(F)(F)F)cc1)c1cnc(N2CCC(O)C2)c(-c2cncnc2)c1 (single isomer, unassigned; 7)
3

Return logP for the following compound: C[C@@]1(O)CCN(c2ncc(C(=O)Nc3ccc(OC(F)(F)F)cc3)cc2-c2ccn[nH]2)C1
4.4

Return logP for the following compound: O=C(Nc1ccc(OC(F)(F)Cl)cc1)c1cnc(N2C[C@H](O)[C@@H](O)C2)c(-c2cncnc2)c1
3.3

Return logP for the following compound: O=C(Nc1ccc(SC(F)(F)F)cc1)c1cnc(N2CC[C@@H](O)C2)c(-c2cncnc2)c1
4.6

Return logP for the following compound: O=C(Nc1ccc(OC(F)(F)Cl)cc1)c1cnc(N2CC[C@@H](O)C2)c(-c2ccn[nH]2)c1
3.9

Return logP for the following compound: COc1ccc(C(=O)Nc2ccc(OC(F)(F)F)cc2)cc1-c1cncnc1
4.6

Return logP for the following compound: O=C(Nc1ccc(OC(F)(F)F)cc1)c1cnc(N2CCC(O)C2)c(-c2cncnc2)c1 (single isomer, unassigned; 14)
3.5
